MEASUREMENT_TARGET: MLN51 SELOR (UniProt O15234 137-283)
Sequence (O15234 137-283): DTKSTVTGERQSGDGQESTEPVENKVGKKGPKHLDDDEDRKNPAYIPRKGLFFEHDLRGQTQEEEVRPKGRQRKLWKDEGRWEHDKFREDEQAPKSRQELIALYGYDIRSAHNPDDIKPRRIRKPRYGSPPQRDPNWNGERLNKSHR
EXPERIMENT_SUMMARY: SPR; no nucleotide; 5 mM Mg2+; SPR (Biacore 2000): 40 mM Tris-HCl pH 7.8, 50 mM NaCl, 4 mM DTT, 5 mM MgCl2, 0.002% Tween 20, 30 ul/min, 10-160 nM protein; temperature not stated
ASSAY_SETUP: protein: recombinant; tags: GST cleaved off (PreScission); label: 5' biotin; single strand
pKd: −log10 of the molar value.
MEASURED_METRIC: pKd

For the binder AUGUCAUUCGAGUACAGUCUGUUCAGCUAGUCUCC (ssRNA) [35-mer ssRNA] , give its measured pKd value. ~6.00
